System: CEM cells HIV-1 protection, formazan growth assay
Assay: NCI AIDS Antiviral Assay
Conditions: measured here: growth of uninfected CEM cells
Where a SMILES comes first, the peptide text is derived from it. [ ]: non-standard residue; d: D form. The star is where a group is joined. ξ: configuration not given here. ξPhe(4-NO2) = NC(Cc1ccc([N+](=O)[O-])cc1)C(=O)O; Boc = CC(C)(C)OC(=O)*
Answer each item with its documented pIC50.
In simple prose, pIC50 is minus the logarithm base ten of a concentration in moles per litre.

Entry C=C(Cl)c1c(OC)cccc1OCc1ccccc1 under CEM cells HIV-1 protection, formazan growth assay had pIC50 of 4.01

Entry CCNC(=O)CNC(=O)C(Cc1ccc([N+](=O)[O-])cc1)NC(=O)OC(C)(C)C (configuration not stated) (Boc-[ξPhe(4-NO2)]-Gly-NHEt) under CEM cells HIV-1 protection, formazan growth assay had pIC50 of 3.09

Entry Cc1cccc2c1c1ccc3c(c1n2C)C(=O)C=CC3=O under CEM cells HIV-1 protection, formazan growth assay had pIC50 of 5.01

Entry Cn1cc(NC(=O)Nc2cc(C(=O)Nc3cc(C(=O)Nc4cc(C(=O)Nc5ccc6cc(S(=O)(=O)O)cc(S(=O)(=O)O)c6c5)n(C)c4)n(C)c3)n(C)c2)cc1C(=O)Nc1cc(C(=O)Nc2cc(C(=O)Nc3ccc4cc(S(=O)(=O)O)cc(S(=O)(=O)O)c4c3)n(C)c2)n(C)c1 under CEM cells HIV-1 protection, formazan growth assay had pIC50 of 3.93

---

Test system: CEM cells HIV-1 protection, formazan growth assay
Assay: NCI AIDS Antiviral Assay
Conditions: measured here: growth of uninfected CEM cells
Measured endpoint: IC50

Value of measured IC50 for the entry COC1/C=C/OC2(C)Oc3c(C)c(O)c4c(O)c(c(/C=N/N5C(C)CN(Cc6ccc(C)cc6)CC5C)c(O)c4c3C2=O)NC(=O)C(C)=C/C=C/C(C)C(O)C(C)C(O)C(C)C(OC(C)=O)C1C (stereo not given) : 3.89 µM

Value of measured IC50 for the entry CCOC(=O)C(C)(c1c(C)n(C)c2ccccc12)c1c(C)n(C)c2ccccc12 : > 100 µM

Value of measured IC50 for the entry C=C=C(CC1CCCCC1=O)S(=O)(=O)c1ccccc1 (stereo not given) : 6.46 µM

Value of measured IC50 for the entry c1ccc2cc3c(NC4=NCCO4)cccc3cc2c1 : 64.6 µM

Value of measured IC50 for the entry Clc1nncc2sc(-c3ccccc3)nc12 : 8.32 µM

Value of measured IC50 for the entry COc1ccc(/C=N/Nc2nnc3c4ccccc4n(C)c3n2)cc1 : > 200 µM

Value of measured IC50 for the entry CC1(C)OC2C(=O)O[C@H](CO)C2O1 (stereo not given in full) : > 200 µM

Value of measured IC50 for the entry CC1SC2=NC3=C(c4ccccc4C3=O)C(c3ccc(Br)cc3)N2C1=O (stereo not given) : > 32.4 µM

Value of measured IC50 for the entry O=C1/C(=C/c2ccccc2)CCc2ccccc21 : 11.5 µM

Value of measured IC50 for the entry Cc1cn(C2OC(COC(=O)c3ccccc3)C(OC(=O)c3ccccc3)C2I)c(=O)[nH]c1=O (stereo not given) : 37.2 µM

---

Answer each item with its documented pIC50.
System: CEM cells HIV-1 protection, formazan growth assay
Test: NCI AIDS Antiviral Assay
Conditions: measured here: growth of uninfected CEM cells
In simple prose, pIC50 is minus the logarithm base ten of a concentration in moles per litre.

Entry NNC1=N/C(=C\c2ccco2)C(=O)N1 under CEM cells HIV-1 protection, formazan growth assay had pIC50 of 3.79

Entry CSc1c(C#N)c(O)n(-c2ccc(Cl)cc2)c(=O)c1C#N under CEM cells HIV-1 protection, formazan growth assay had pIC50 of 4.48

Entry COC(=O)CC1C=CC(C)(OC)OO1 (stereo unspecified) under CEM cells HIV-1 protection, formazan growth assay had pIC50 of 4.03

Entry COc1cc2c(cc1OC)CC(=O)c1cc(OC)c(OC)cc1/C=C\2 under CEM cells HIV-1 protection, formazan growth assay had pIC50 of 5.12

Entry N#CC(C(=O)/C(=N\NC(N)=O)C(C#N)c1ccc(Cl)cc1)c1ccc(Cl)cc1 (stereo unspecified) under CEM cells HIV-1 protection, formazan growth assay had pIC50 of 3.40

Entry CCN(Cc1ccccc1)c1ccc(/C=C/c2nccc3ccccc23)cc1 under CEM cells HIV-1 protection, formazan growth assay had pIC50 of 4.85

---

Tested on: CEM cells HIV-1 protection, formazan growth assay
Experiment: NCI AIDS Antiviral Assay
The source made the active and inactive calls.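 How the source made its calls: active means compounds giving half or more protection of infected cells from virus-caused growth loss, again on retest; inactive means the rest.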
The reply should be one of these categories: 1 (active), 0 (inactive)

Write down the call the test reported for this molecule. Item: CC1(C)CC(=O)C(Cc2ccccc2)(Cc2ccccc2)C(=O)C1 0

Write down the call the test reported for this molecule. Item: Cc1cn(C2CC(N=[N+]=[N-])C(COC(=O)CCCCCCCCCCBr)O2)c(=O)[nH]c1=O (stereo not given) 1

Write down the call the test reported for this molecule. Item: CC(C)(C)OC(=O)N(CCCCN(CCCNC(=O)C(F)(F)F)C(=O)OC(C)(C)C)CCCNC(=O)C(F)(F)F 0

Write down the call the test reported for this molecule. Item: CCN(CC)CCCNc1nccc2c(C)c3c(cc12)c1cnccc1n3C 0

Write down the call the test reported for this molecule. Item: O=c1c2ncn(C3CCCCO3)c2n(-c2ccccc2)c(=S)n1-c1ccccc1 (stereo not given) 0

Write down the call the test reported for this molecule. Item: CCOC(=O)C1Oc2ccc([N+](=O)[O-])c3c2C1(O)CCC3 (stereo not given) 0

Write down the call the test reported for this molecule. Item: O=c1ncccn1C1OC(CO)C(O)C1F (stereo not given) 0

Write down the call the test reported for this molecule. Item: Cc1cc(=O)oc2c1cc1ccc3cccc4ccc2c1c34 0

Write down the call the test reported for this molecule. Item: COc1ccc2c(c1)[n+]([O-])c(S(=O)(=O)c1ccc(C)cc1)c(N)[n+]2[O-] 0

Write down the call the test reported for this molecule. Item: CCOC(=O)C1=C(O)CSC1=Nc1ccc(N=C2SCC(O)=C2C(=O)OCC)cc1 0

---

Answer each item with its documented EC50.
Tested on: CEM cells HIV-1 protection, formazan growth assay
Assay: NCI AIDS Antiviral Assay

Value of measured EC50 for the entry O=C1C(c2ccccc2)=C(c2ccccc2)C(c2ccc(CCCCCCc3ccc(C4=C(c5ccccc5)C(=O)C(c5ccccc5)=C4c4ccccc4)cc3)cc2)=C1c1ccccc1 : > 1.23 µM

Value of measured EC50 for the entry CC1(C)OCC(CO)(CO)CO1 : > 1410 µM

Value of measured EC50 for the entry COC(=O)c1cc(C(=CCN[C@H]2CC[C@@]3(C)[C@@H](CC[C@@H]4[C@@H]3CC[C@]3(C)[C@@H]([C@H](C)CCCC(C)C)CC[C@@H]43)C2)c2cc(Cl)c(OC)c(C(=O)OC)c2)cc(Cl)c1OC : > 100 µM

Value of measured EC50 for the entry C=Cc1c(Cl)nc(C)c(C)c1-c1ccc(OC)c(OC)c1OCc1ccccc1 : > 200 µM

Value of measured EC50 for the entry O=C(N/N=C\c1ccccn1)c1ccncc1 : > 200 µM

Value of measured EC50 for the entry CCOC(=O)[C@H]1Nc2c(cccc2[N+](=O)[O-])C2c3ccccc3CC21 (some centres not stated) : > 15.5 µM

Value of measured EC50 for the entry CC(=O)Nc1ccc(/C=C/C(=O)c2ccccc2)cc1 : > 38 µM

Value of measured EC50 for the entry CCNc1cnc2c(n1)c(=O)n(C)c(=O)n2C : > 200 µM

Value of measured EC50 for the entry C/C(=N\NC(=O)c1ccncc1)c1ccccc1F : > 977 µM

Value of measured EC50 for the entry COc1cccc(NC(=O)CC(=O)n2nc(-c3ccccc3)c(N=Nc3ccc(Cl)cc3)c2-c2ccccc2)c1 : > 200 µM

Value of measured EC50 for the entry Cc1ccc(S(=O)(=O)Nn2c3c(cc(C#N)c2=O)CCCCC3)cc1 : > 200 µM

Value of measured EC50 for the entry CC1=CC(C)=Nc2ccc(Cl)cc2N1 : > 200 µM

Value of measured EC50 for the entry O=C(O)CSc1n[nH]c(Cc2ccccc2)n1 : > 1000 µM

Value of measured EC50 for the entry CCOP(OCC)SSCn1nc2ccc3ccccc3n2c1=O : > 200 µM

Value of measured EC50 for the entry O=C(Cn1c(=O)oc2ccc(C(=O)c3ccc(F)cc3)cc21)c1ccc([N+](=O)[O-])cc1 : > 200 µM

Value of measured EC50 for the entry CN(C)S(=O)(=O)C(c1ccccc1)C1(O)CCCCC1 (configuration not stated) : > 437 µM

Value of measured EC50 for the entry Cc1cc2c(c3ncccc13)OCN(Cc1ccc(Cl)c(Cl)c1)C2 : > 100 µM

Value of measured EC50 for the entry CC(=O)c1ccc2c(c1)NC(=O)CC(C)N2 (configuration not stated) : > 200 µM

Value of measured EC50 for the entry CC(C)OCC(O)COc1cc(=O)oc2ccccc12 (configuration not stated) : > 200 µM

Value of measured EC50 for the entry CCC(Oc1c2ccoc2c(OC)c2oc(=O)cc(O)c12)C(=O)O (configuration not stated) : > 269 µM

Value of measured EC50 for the entry COc1cc2c(c([N+](=O)[O-])c1)NC(=O)C(C)S2 (configuration not stated) : > 200 µM

Value of measured EC50 for the entry C=CP(=S)(c1ccccc1)c1ccccc1 : > 56.2 µM
